Listed here: items and their measured pKi.
Molecular target: hCA II (Homo sapiens, UniProt P00918)
Construct: recombinant, obtained in-house as previously reported
Assay: stopped-flow CO2 hydrase assay
In plain terms, pKi is the concentration in mol/L turned into minus its base-10 logarithm.

{"compound": "O=C(N/N=C1\\SCC(=O)N1c1ccc(F)cc1)C(O)c1ccccc1 (centres unmarked) [3c]", "pKi": 4.12}
{"compound": "O=C(N/N=C1\\SCC(=O)N1c1ccc(Br)cc1)C(O)c1ccccc1 (centres unmarked) [3i]", "pKi": 4.32}
{"compound": "O=C(N/N=C1\\SCC(=O)N1c1cccc(C(F)(F)F)c1)C(O)c1ccccc1 (centres unmarked) [3o]", "pKi": 4.08}

Fill in the blank: the reported pKi of O=C(N/N=C1\SCC(=O)N1c1cccc(Cl)c1)C(O)c1ccccc1 (centres unmarked) [3e] is ____.
4.30

Fill in the blank: the reported pKi of O=C(N/N=C1\SCC(=O)N1c1ccc(Cl)cc1)C(O)c1ccccc1 (centres unmarked) [3f] is ____.
4.20

Fill in the blank: the reported pKi of CC1S/C(=N\NC(=O)C(O)c2ccccc2)N(c2cccc(Br)c2)C1=O (centres unmarked) [4e] is ____.
4.17

Fill in the blank: the reported pKi of O=C(N/N=C1\SCC(=O)N1c1cccc(Br)c1)C(O)c1ccccc1 (centres unmarked) [3h] is ____.
4.25

Fill in the blank: the reported pKi of Cc1cccc(N2C(=O)CS/C2=N\NC(=O)C(O)c2ccccc2)c1 (centres unmarked) [3k] is ____.
4.10

---

Tested on: C. parapsilosis 2 strains
Construct: 2 clinical isolates
Assay: microbe, parasite or virus in culture
Parameters: species or system clinical Candida isolates; CLSI broth microdilution MIC, Sabouraud dextrose broth, 35 °C, visual complete growth inhibition
Conditions: Lodderomyces parapsilosis, 24 h, read-out: Tested Fungi (MIC Values μg/mL) / C. parapsilosis 2 strains
Each record is given y if its reported MIC is strictly below 20 µg/mL. Records at or above 20 µg/mL are given n.

Solved cases (10 shown):
{"compound": "CC1S/C(=N\\NC(=O)C(O)c2ccccc2)N(c2cccc(Br)c2)C1=O (centres unmarked)", "discrete-label": "n"}
{"compound": "Cc1ccc(N2C(=O)C(C)S/C2=N\\NC(=O)C(O)c2ccccc2)cc1 (centres unmarked)", "discrete-label": "n"}
{"compound": "CC1S/C(=N\\NC(=O)C(O)c2ccccc2)N(c2cccc(F)c2)C1=O (centres unmarked)", "discrete-label": "y"}
{"compound": "CC1S/C(=N\\NC(=O)C(O)c2ccccc2)N(c2cccc(C(F)(F)F)c2)C1=O (centres unmarked)", "discrete-label": "n"}
{"compound": "Cc1cccc(N2C(=O)C(C)S/C2=N\\NC(=O)C(O)c2ccccc2)c1 (centres unmarked)", "discrete-label": "n"}
{"compound": "O=C(N/N=C1\\SCC(=O)N1c1ccc(F)cc1)C(O)c1ccccc1 (centres unmarked)", "discrete-label": "n"}
{"compound": "O=C(N/N=C1\\SCC(=O)N1c1cccc(F)c1)C(O)c1ccccc1 (centres unmarked)", "discrete-label": "n"}
{"compound": "Cc1ccccc1N1C(=O)CS/C1=N\\NC(=O)C(O)c1ccccc1 (centres unmarked)", "discrete-label": "y"}
{"compound": "CC1S/C(=N\\NC(=O)C(O)c2ccccc2)N(c2ccc(Cl)cc2)C1=O (centres unmarked)", "discrete-label": "y"}
{"compound": "O=C(N/N=C1\\SCC(=O)N1c1ccc(Br)cc1)C(O)c1ccccc1 (centres unmarked)", "discrete-label": "y"}

Okay, next one:
In plain terms, does COc1ccc(N2C(=O)C(C)S/C2=N\NC(=O)C(O)c2ccccc2)cc1 (centres unmarked) come in under 20 µg/mL for MIC?
n
